Please provide measured log10 of IC50 for the entries that follow.
- System: P. falc. K1
- assay overview: In vitro counter screen, P. falc. K1
- Format: cell-based
- condition: read-out: P. falc. K1 IC50
Recorded IC50 (log10, µg/mL)

Item C[C@@H]1CN([C@@H](C)CO)C(=O)c2cccc(NC(=O)c3ccncc3)c2O[C@H]1CN(C)Cc1ccc(-c2ccccc2)cc1 [Compound 7] has what recorded log10 of IC50?
0.08

Item C[C@H](CO)N1C[C@H](C)[C@H](CN(C)Cc2ccccc2)Oc2c(NC(=O)c3ccncc3)cccc2C1=O [Compound 1] has what recorded log10 of IC50?
1.31

Item C[C@@H]1CN([C@H](C)CO)C(=O)c2cccc(NC(=O)c3ccncc3)c2O[C@H]1CN(C)Cc1ccccc1 [Compound 9] has what recorded log10 of IC50?
0.68

Item C[C@H]1CN([C@@H](C)CO)C(=O)c2cccc(NC(=O)c3ccncc3)c2O[C@H]1CN(C)Cc1ccc(-c2ccccc2)cc1 [Compound 20] has what recorded log10 of IC50?
0.06

Item C[C@H](CO)N1C[C@H](C)[C@@H](CN(C)Cc2ccc(C(F)(F)F)cc2)Oc2c(NC(=O)c3ccncc3)cccc2C1=O [Compound 13] has what recorded log10 of IC50?
0.47

Item COc1ccc(CN(C)C[C@@H]2Oc3c(NC(=O)c4ccncc4)cccc3C(=O)N([C@H](C)CO)C[C@H]2C)cc1 [Compound 5] has what recorded log10 of IC50?
0.87

Item C[C@H]1CN([C@@H](C)CO)C(=O)c2cccc(NC(=O)c3ccncc3)c2O[C@H]1CN(C)Cc1ccccc1 [Compound 17] has what recorded log10 of IC50?
0.75
